# system-name: Aurora A (Homo sapiens)
# Sequence (O14965 1-403): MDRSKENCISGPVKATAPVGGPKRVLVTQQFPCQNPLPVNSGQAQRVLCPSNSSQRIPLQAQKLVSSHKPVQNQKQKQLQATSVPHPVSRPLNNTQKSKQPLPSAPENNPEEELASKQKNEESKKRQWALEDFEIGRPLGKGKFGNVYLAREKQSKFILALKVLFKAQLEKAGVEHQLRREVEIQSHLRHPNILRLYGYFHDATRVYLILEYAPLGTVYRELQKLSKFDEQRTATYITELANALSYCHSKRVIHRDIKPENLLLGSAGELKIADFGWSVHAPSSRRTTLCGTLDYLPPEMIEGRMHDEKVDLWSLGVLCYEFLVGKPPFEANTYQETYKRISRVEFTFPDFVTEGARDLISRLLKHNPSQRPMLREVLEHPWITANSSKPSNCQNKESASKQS
Structures can show the parent of a compound that is named as a salt.
In this section, each of the compounds is paired with its reported pIC50.
Scale: negative log10 of molar concentration, which is what pIC50 denotes.

See these solved cases before continuing.
I'd like to know its pIC50. The compound in question is Cc1cnc(Nc2cccc(CN3CCN(C(=O)c4cccc(Cl)c4F)CC3)n2)s1 [Example 42, trifluoroacetate]
9.00

// pIC50 lookup, key: O=C(c1cccc(C(F)(F)F)c1Cl)N1CCN(Cc2cncc(Nc3cc[nH]n3)n2)CC1 [Example 51, trifluoroacetate]
9.01

Quick one: pIC50 of "O=C(c1cccc(F)c1F)N1CCN(Cc2cc(N3CCOCC3)cc(Nc3nccs3)n2)CC1" ?
9.12

Looking for the measured pIC50 of O=C(c1cccc(Cl)c1F)N1CCN(Cc2cc(Cn3ccnn3)cc(Nc3nccs3)n2)CC1 [Example 90, trifluoroacetate] , can you help?
8.82

Give the measured pIC50 of "O=C(c1cccc(Cl)c1F)N1CCN(Cc2cccc(Nc3nccs3)n2)CC1" .
9.17

Others:
Query (compound): O=C(c1cccc(Br)c1F)N1CCN(Cc2cncc(Nc3cc[nH]n3)n2)CC1 [Example 49, trifluoroacetate] ; field requested: pIC50
8.85

Which pIC50 is listed for O=C(c1cccc(C(F)(F)F)c1Cl)N1CCN(Cc2cccc(Nc3cc[nH]n3)n2)CC1 [Example 18, trifluoroacetate] ?
8.74

Could you tell me which pIC50 is on file for CN(C)C(=O)c1cc(CN2CCN(C(=O)c3cccc(Cl)c3F)CC2)nc(Nc2nccs2)c1.O=C(O)C(F)(F)F [Example 86, trifluoroacetate] ?
9.18

Bench note: what pIC50 did "COCc1cc(CN2CCN(C(=O)c3cccc(Cl)c3F)CC2)nc(Nc2nccs2)c1" show?
9.23

Give the measured pIC50 of Cc1cc(Nc2cccc(CN3CCN(C(=O)c4cccc(Cl)c4Cl)CC3)n2)n[nH]1 [Example 26, trifluoroacetate] .
8.96

Quick one: pIC50 for O=C(c1cccc(Cl)c1F)N1CCN(Cc2cc(Cn3nccn3)cc(Nc3nccs3)n2)CC1 [Example 91, trifluoroacetate] ?
8.85

====

# system-name: Aurora B (Homo sapiens)
# Sequence (Q96GD4 whole entry): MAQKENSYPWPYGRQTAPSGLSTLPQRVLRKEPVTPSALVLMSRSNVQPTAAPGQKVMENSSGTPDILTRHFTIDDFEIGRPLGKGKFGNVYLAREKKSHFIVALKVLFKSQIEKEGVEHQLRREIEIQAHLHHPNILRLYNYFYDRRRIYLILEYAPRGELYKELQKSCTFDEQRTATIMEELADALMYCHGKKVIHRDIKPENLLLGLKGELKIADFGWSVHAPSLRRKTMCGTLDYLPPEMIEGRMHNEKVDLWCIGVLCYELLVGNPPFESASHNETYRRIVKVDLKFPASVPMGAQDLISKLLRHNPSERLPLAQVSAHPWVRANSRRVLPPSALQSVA
Where a name gives a salt, the structure may show the parent alone.
Catalogue of pIC50 readings, one per entry.
Remember, pIC50 is on a log scale: it is -log10 of the molar concentration.

Reported pIC50 for "Cc1cc(Nc2cncc(CN3CCN(C(=O)c4cccc(Cl)c4F)CC3)n2)n[nH]1" : what is it?
5.54

Looking for the measured pIC50 of "O=C(c1ccco1)N1CCN(Cc2cccc(Nc3ncc(Cl)s3)n2)CC1" , can you help?
6.42

Item "COC(=O)c1cc(CN2CCN(C(=O)c3cccc(Cl)c3F)CC2)nc(Nc2nccs2)c1" has what recorded pIC50?
6.68

Fill in: pIC50 of O=C(NCCO)c1cc(CN2CCN(C(=O)c3cccc(Cl)c3F)CC2)nc(Nc2nccs2)c1 [Example 88, trifluoroacetate] is ___
6.00

Returns the measured pIC50 for the input compound. Input: "O=C(c1ccccc1)N1CCN(Cc2cccc(Nc3cc(C4CC4)[nH]n3)n2)CC1"
6.12

Name the recorded pIC50 for O=C(Cc1ccc(Cl)cc1)N1CCN(Cc2cccc(Nc3ncc(Cl)s3)n2)CC1.O=C(O)C(F)(F)F [Example 77, trifluoroacetate] .
5.89

What does the data say about its pIC50? Entry: "O=C(c1cccc(Br)c1F)N1CCN(Cc2cccc(Nc3nccs3)n2)CC1"
6.40
